Task for the reader: assign each of the following molecules its reported viability at 10 µM.
test system: HepG2 (Hepatocellular Carcinoma); test: Cell viability analysis, hepatic cancer HepG2; format: cell-based, human; details: Homo sapiens, HepG2, 72 h, read-out: cell viability (survival rate), HepG2
Numbers only, in %.

Worked cases, answers included:
1) COc1cc(C)c(/C=C/C(C)=C/C=C/C(C)=C/C(=O)O)c(C)c1C = 72.6
2) O=C([O-])c1ccccc1O.[Na+] [Sodium salicylate] = 84.3

Below is a list of molecules. For each, state its recorded viability at 10 µM.
1. C[N+](C)(C)CCO.[Cl-] [Choline Chloride]
2. CCCCCCCCCCCCCCCC[n+]1ccccc1 [Cetylpyridinium Chloride]

Result block:
1. 103
2. 60.9
